system: COLO 205; experiment: NCI tumour cell line growth inhibition, 48 h
Active and inactive are the calls of the source. No stated cut-off is given here; in the data, active = GI50 up to about 1.1 µM and inactive = higher.
# GI50 listing for each entry below

compound	GI50
CC(=O)Nc1ccc2c(c1)nc1c3ccccc3ccn21	> 100 µM (inactive)
COc1cc(-c2c3c(cc4c2OCO4)[C@@H](Nc2ccc(-c4ccc(-c5ccc(N[C@@H]6c7cc8c(cc7C(c7cc(OC)c(O)c(OC)c7)[C@H]7C(=O)OC[C@H]67)OCO8)cc5)cc4)cc2)[C@H]2COC(=O)[C@@H]2C3)cc(OC)c1O (stereo partly drawn)	1.7 µM (inactive)
COc1cc([C@@H]2c3cc4c(c(O[C@@H]5O[C@H]6CO[C@@H](C)O[C@H]6[C@H](O)[C@@H]5O)c3C[C@H]3COC(=O)[C@@H]32)OCO4)cc(OC)c1O	38.8 µM (inactive)

* * *

test system: RXF 631; assay: NCI tumour cell line growth inhibition, 48 h
The source made the active and inactive calls. No stated cut-off is given here; in the data, active = GI50 up to about 1.1 µM and inactive = higher.
measured_property: GI50

> print(dat)
                                   molecule           data.value
1        COC(=O)c1cc2c3ccccc3n(C(C)=O)c2cn1   77.6 µM (inactive)
2  COc1ccc(C2NCCc3c2[nH]c2ccccc32)cc1 (stereo not drawn)     67 µM (inactive)
3      Nc1nc(-c2ccccc2)cc(-c2cc(Cl)ccc2O)n1  > 100 µM (inactive)
4  Nc1nc2ncn(CC(O)COC(=O)c3ccccc3)c2c(=O)[nH]1 (stereo not drawn)  > 100 µM (inactive)
5  CC(C)C1COC(C(C)(C)C2=N[C@@H](C(C)C)CO2)=N1 (stereo partly drawn)  > 100 µM (inactive)
6    CN(C)CCNC(=O)c1cccc2ccc(-c3cccnc3)nc12   3.48 µM (inactive)
7  COc1cc2c(cc1OC)[C@@H](Nc1ccc(F)cc1)C1COC(=O)[C@@H]1C2c1cc(OC)c(O)c(OC)c1 (stereo partly drawn)   1.73 µM (inactive)
8                CC(C)N(C(=O)C1(C)CC1)C(C)C  > 100 µM (inactive)

* * *

# GI50 listing for each entry below
test system: COLO 205; assay: NCI tumour cell line growth inhibition, 48 h
Calls of active or inactive are those of the source. Cut-off read from the data, not from the text of the source: active = GI50 up to about 1.1 µM and inactive = higher.
measured_property: GI50

> print(dat)
                                   molecule           data.value
1  O=C1OCC2(CO1)CC1C=CC2C1 (stereo unspecified)  > 100 µM (inactive)
2  CN1c2ccccc2S(=O)(=O)n2c(COc3ccc(Cl)cc3)nnc21  > 100 µM (inactive)
3  OCCN(C1=NCCN1)/[N+](=C\c1ccccn1)[CH-]c1ccccn1  > 100 µM (inactive)
4  Nc1ccn(C2OC(COP(=O)(O)OCC3OC(n4cc(F)c(=O)[nH]c4=O)CC3O)C(O)C2O)c(=O)n1 (stereo unspecified)   4.68 µM (inactive)
5  COc1cc(C(=O)n2c3ccc(Br)cc3c3nc4ccccc4nc32)cc(OC)c1OC  > 100 µM (inactive)
6            CCOC(=O)OC1(c2ccccc2)CCN(C)CC1  > 100 µM (inactive)

* * *

system: SK-MEL-2; assay: NCI tumour cell line growth inhibition, 48 h
Calls of active or inactive are those of the source. Cut-off read from the data, not from the text of the source: active = GI50 up to about 1.1 µM and inactive = higher.
Outcome codes: True = active, False = inactive

> print(dat)
                                   compound  target.or.system  answer.label
1  CC12OC3(C(O)C1O)C(C(=O)O[C@H]3CO[Si](C)(C)C(C)(C)C)C2S(=O)(=O)c1ccccc1 (some centres undefined)          SK-MEL-2         False
2  O=C1/C(=C/c2ccncc2)C(n2cccc2)c2c(Br)sc(Br)c21 (centres undefined)          SK-MEL-2         False
3              COC(=O)CC(=O)NCC1=CCC(=O)CC1          SK-MEL-2         False
4  CCN(CC)CCOC(=O)c1ccc(N)cc1.CCOC(=O)Nc1ccc(S(=O)(=O)OC)cc1.CCOC(=O)Nc1ccc(S(=O)(=O)OC)cc1.Nc1ccc(C(=O)O)c(O)c1          SK-MEL-2         False
5  CC1=C[C@H]2C[C@@]3(C)O[C@@H]([C@]4(C)CC[C@H]([C@@H](C)C(=O)O)OO4)CC3C(C)(C)[C@H]2CC1 (some centres undefined)          SK-MEL-2         False
6       COc1ccc(CCCN2c3ccccc3Sc3ccccc32)cc1          SK-MEL-2         False
7  N#CC(N)(C(=O)C(=O)NCCCNC(=O)C(=O)C(N)(C#N)c1ccc(Cl)cc1)c1ccc(Cl)cc1 (centres undefined)          SK-MEL-2         False
8  COc1ccc(/C=N/Nc2nc3ccccc3c(=O)n2-c2ccccc2)c(OCc2ccccc2)c1          SK-MEL-2          True
9  CC(C)C(NCc1c2ccccc2[n+](C)c2ccccc12)C(=O)O (centres undefined)          SK-MEL-2         False
